Test: Stability indicating HPLC assay and related substances on storage (Example 3)
Format: physicochemical
Conditions: Initial
Listed compounds paired with reported Known Related Substances HN75083

COMPOUND	UNIT_TEXT	Known Related Substances HN75083
CN1CCC23c4c5ccc(O)c4OC2C(OC2OC(C(=O)O)C(O)C(O)C2O)C=CC3C1C5.O=P(O)(O)O (centres unmarked) [Morphine-6-glucuronide phosphate]	%	0.07
CN1CC[C@]23c4c5ccc(O)c4O[C@H]2[C@@H](O[C@@H]2O[C@H](C(=O)O)[C@@H](O)[C@H](O)[C@H]2O)C=C[C@H]3[C@H]1C5.Cl [Morphine-6-glucuronide hydrochloride]	%	0.06
Br.CN1CC[C@]23c4c5ccc(O)c4O[C@H]2[C@@H](O[C@@H]2O[C@H](C(=O)O)[C@@H](O)[C@H](O)[C@H]2O)C=C[C@H]3[C@H]1C5 [Morphine-6-glucuronide hydrobromide]	%	0.10
CN1CCC23c4c5ccc(O)c4OC2C(OC2OC(C(=O)O)C(O)C(O)C2O)C=CC3C1C5.CN1CCC23c4c5ccc(O)c4OC2C(OC2OC(C(=O)O)C(O)C(O)C2O)C=CC3C1C5.O=S(=O)(O)O (centres unmarked) [Morphine-6-glucuronide sulphate]	%	0.23
CN1CC[C@]23c4c5ccc(O)c4O[C@H]2[C@@H](O[C@@H]2O[C@H](C(=O)O)[C@@H](O)[C@H](O)[C@H]2O)C=C[C@H]3[C@H]1C5 [Morphine-6-glucuronide base, morphine-6-β-D-glucuronide]	%	0.06

----------
Experiment: Stability indicating HPLC assay and related substances on storage (Example 3)
Format: physicochemical
Details: 1 month, 40° C./75% RH
Protocol: Assay (% w/w) and related substances determination Each test material was stored between 2-8*C prior to placing on stability. Each material was sub-divided into 900 mg aliquots, transferred to brown opaque HDPE plastic bottles and flushed with Argon prior to sealing. Sufficient samples were provided for each time point as well as spares for each storage condition. The samples were placed in appropriate incubators previously commissioned at storage conditions 25° C./60% RH, 40° C./75% RH and 60° C. […]
Listed compounds paired with reported Known Related Substances HN75083
QUANTITY_NAME: Known Related Substances HN75083 (%)

COMPOUND	UNIT_TEXT	ASSAY_RESULT
CN1CC[C@]23c4c5ccc(O)c4O[C@H]2[C@@H](O[C@@H]2O[C@H](C(=O)O)[C@@H](O)[C@H](O)[C@H]2O)C=C[C@H]3[C@H]1C5 [Morphine-6-glucuronide base, morphine-6-β-D-glucuronide]	%	0.03
CN1CC[C@]23c4c5ccc(O)c4O[C@H]2[C@@H](O[C@@H]2O[C@H](C(=O)O)[C@@H](O)[C@H](O)[C@H]2O)C=C[C@H]3[C@H]1C5.Cl [Morphine-6-glucuronide hydrochloride]	%	0.07
Br.CN1CC[C@]23c4c5ccc(O)c4O[C@H]2[C@@H](O[C@@H]2O[C@H](C(=O)O)[C@@H](O)[C@H](O)[C@H]2O)C=C[C@H]3[C@H]1C5 [Morphine-6-glucuronide hydrobromide]	%	0.05
CN1CCC23c4c5ccc(O)c4OC2C(OC2OC(C(=O)O)C(O)C(O)C2O)C=CC3C1C5.CN1CCC23c4c5ccc(O)c4OC2C(OC2OC(C(=O)O)C(O)C(O)C2O)C=CC3C1C5.O=C(O)C=CC(=O)O (stereo not shown) [Morphine-6-glucuronide maleate]	%	0.03
